Source: ChEMBL document CHEMBL1140023

system: Leishmania donovani; assay: Antileishmanial activity against Leishmania donovani assessed as inhibition of amastigotes at 10 ug/ml; format: functional
Recorded inhibition at 10 µg/mL by entry
# output: bare number, implied unit %

Known inhibition at 10 µg/mL results, listed for orientation:
{"columns": ["Structure string", "Target", "inhibition at 10 µg/mL (%)"],
 "data": [
  ["O=C(NCCc1c[nH]c2ccccc12)C(=O)c1c[nH]c2cc(Br)ccc12", "Leishmania donovani", 75.1],
  ["O=C(NCCc1c[nH]c2ccccc12)C(=O)c1c[nH]c2c(Cl)cccc12", "Leishmania donovani", 59.1],
  ["Cn1cc(CCNC(=O)C(=O)c2cn(C)c3ccccc23)c2ccccc21", "Leishmania donovani", 97.8]
]}

Problem: Given the compound `O=C(NCCc1c[nH]c2ccccc12)C(=O)c1c[nH]c2ccccc12` , what is its reported inhibition at 10 µg/mL?
Solution: 97.7

Problem: Consider the compound shown here: `O=C(C(=O)N1CCOCC1)c1c[nH]c2ccccc12` What is its recorded inhibition at 10 µg/mL?
Solution: 78.1
